# TARGET_OR_SYSTEM: T1, rat MuSK (rat, UniProt Q62838)
# T1 chain: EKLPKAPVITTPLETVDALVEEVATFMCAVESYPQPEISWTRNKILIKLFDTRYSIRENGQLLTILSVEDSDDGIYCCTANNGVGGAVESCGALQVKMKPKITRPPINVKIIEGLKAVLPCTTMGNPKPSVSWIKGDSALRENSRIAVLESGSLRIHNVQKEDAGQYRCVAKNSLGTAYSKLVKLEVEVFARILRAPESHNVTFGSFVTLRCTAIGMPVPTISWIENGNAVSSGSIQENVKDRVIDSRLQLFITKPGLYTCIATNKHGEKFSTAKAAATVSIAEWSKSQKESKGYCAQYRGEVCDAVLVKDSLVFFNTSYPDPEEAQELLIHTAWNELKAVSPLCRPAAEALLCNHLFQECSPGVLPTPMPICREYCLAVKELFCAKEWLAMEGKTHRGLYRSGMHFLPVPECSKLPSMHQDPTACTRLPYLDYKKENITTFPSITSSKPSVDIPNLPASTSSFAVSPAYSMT
# TEST: SPR
OBSERVED_PROPERTY: Kd (nM)
Return type: number; implicit unit nM.

Please fill in: Kd reported for MuSK7-pal (macrocyclic homodimer with palmitoyl group) chain 1: YPSYHTNVVASLKRC chain 2: YPSYHTNVVASLKRC = 2
